As an illustration, consider measured pKi for molecules on 5-hydroxytryptamine receptor 2C (Homo sapiens).
Sequence (P28335 whole entry): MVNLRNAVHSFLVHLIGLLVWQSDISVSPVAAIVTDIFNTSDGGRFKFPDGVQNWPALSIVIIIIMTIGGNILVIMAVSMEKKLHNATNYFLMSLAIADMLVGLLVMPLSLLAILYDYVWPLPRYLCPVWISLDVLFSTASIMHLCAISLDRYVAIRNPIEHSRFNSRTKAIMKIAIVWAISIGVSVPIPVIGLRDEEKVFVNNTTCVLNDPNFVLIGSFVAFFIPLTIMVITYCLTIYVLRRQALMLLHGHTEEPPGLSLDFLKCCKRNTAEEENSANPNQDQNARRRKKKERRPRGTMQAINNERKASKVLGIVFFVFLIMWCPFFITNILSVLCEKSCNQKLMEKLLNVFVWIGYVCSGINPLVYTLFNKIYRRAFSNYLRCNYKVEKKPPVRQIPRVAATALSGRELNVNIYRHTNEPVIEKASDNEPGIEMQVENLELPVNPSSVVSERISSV
Lab note — pKi values are minus log10 of concentrations in M.

Consider the worked cases shown below.
Input line: pKi lookup needed for `Nc1cccc2nc(C(=O)N3CCN(CCc4ccc(F)cc4F)CC3)cn12` , thanks.
Output line: 6.82

Input line: Same for `O=C(c1cn2ccccc2n1)N1CCN(CCc2ccc(F)cc2F)CC1`
Output line: 6.22

Input line: Try this molecule next: `Cc1cc(C)n2ccnc2c1C(=O)N1CCN(CCc2ccc(F)cc2F)CC1`
Output line: 6.82

More entries:
Input line: Need pKi of `Cc1nc2ccccn2c1C(=O)N1CCN(CCc2ccc(F)cc2F)CC1` , thanks.
Output line: 6.00

Input line: Input `O=C(c1cccc2ccnn12)N1CCN(CCc2ccc(F)cc2F)CC1`
Output line: 6.71

Input line: Cool, now `O=C(c1cnn2c1CCCC2)N1CCN(CCc2ccc(F)cc2F)CC1`
Output line: 5.54

Input line: Same thing, different molecule: `O=C(c1cccn2cc(Br)nc12)N1CCN(CCc2ccc(F)cc2F)CC1`
Output line: 6.17

Input line: Another: `O=C(c1cccn2ccnc12)N1CCN(CCc2ccc(F)cc2F)CC1`
Output line: 6.28

Input line: Repeat with `O=C(c1cc2n(n1)CCCC2)N1CCN(CCc2ccc(F)cc2F)CC1`
Output line: 6.14

Input line: Next molecule up: `N#Cc1cn2cccc(C(=O)N3CCN(CCc4ccc(F)cc4F)CC3)c2n1`
Output line: 5.16
